Source of measurements: the supplement of paper PMC4840960

# reported fiber score / MBP score; entries follow
# Tested on: E18 rat cortical neuron-glia co-culture;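 note: MBP fiber length per Olig2+ nucleus over MBP area × intensity per Olig2+ nucleus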
# PROTOCOL: fiber score / MBP score (myelination specific beyond OL differentiation) (ratio); higher = more myelination-specific MBP alignment
# RUN PARAMETERS: 1 µM; treatment time: 8 days (DIV5-DIV13)
Structures can show the parent of a compound that is named as a salt.
READOUT: fiber score / MBP score

1. O=C(O)CCCc1ccc(N(CCCl)CCCl)cc1 [Chlorambucil] | 0.893
2. CCN(C(C)=O)c1cccc(-c2ccnc3c(C#N)cnn23)c1 [Zaleplon] | 0.794
3. O=C1CC[C@@]2(O)[C@H]3Cc4ccc(O)c5c4[C@@]2(CCN3CC2CC2)[C@H]1O5 [Naltrexone] | 1.3
4. NC(=O)C[S+]([O-])C(c1ccccc1)c1ccccc1 (stereo not given) [Modafinil] | 0.88
5. c1ccc2c(c1)Nc1ccccc1S2 [Phenothiazine] | 0.706
6. CCOC(=O)C1(c2ccccc2)CCN(CCC(C#N)(c2ccccc2)c2ccccc2)CC1 [Diphenoxylate] | 0.738
7. CCCC(C)(COC(N)=O)COC(=O)NC(C)C (stereo not given) [Carisoprodol] | 0.713
8. O=c1c2ccccc2[se]n1-c1ccccc1 [Ebselen] | 2.01
9. COc1ccc(C(CN(C)C)C2(O)CCCCC2)cc1 (stereo not given) [Venlafaxine] | 0.576
10. FC(F)(F)c1cccc(N2CCNCC2)c1 [1-(3-trifluoromethylphenyl)piperazine hydrochloride (TFMPP)] | 0.633

---

# Tested on: E18 rat cortical neuron-glia co-culture;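 note: MBP fiber length per Olig2+ nucleus over MBP area × intensity per Olig2+ nucleus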
# PROTOCOL: fiber score / MBP score (myelination specific beyond OL differentiation) (ratio); higher = more myelination-specific MBP alignment
# RUN PARAMETERS: 5 µM; treatment time: 8 days (DIV5-DIV13)
Each record's class is read off its fiber score / MBP score using these ranges: Low: < 0.7; Medium: ≥ 0.7 and < 0.9; High: ≥ 0.9

1. CN1CC[C@]23CCCC[C@H]2[C@H]1Cc1ccc(O)cc13 | Medium
2. CCOC(=O)C1(c2ccccc2)CCN(CCC(C#N)(c2ccccc2)c2ccccc2)CC1 [Diphenoxylate] | Medium
3. NC(=O)C[S+]([O-])C(c1ccccc1)c1ccccc1 (stereo not given) | Medium
4. CCC(COC(=O)c1cc(OC)c(OC)c(OC)c1)(c1ccccc1)N(C)C (stereo not given) | Low
5. C#CCN(C)[C@H](C)Cc1ccccc1 | High
6. CC(C)N(CCC(C(N)=O)(c1ccccc1)c1ccccn1)C(C)C (stereo not given) [Disopyramide] | Low
7. O=C1CN=C(c2ccccc2)c2cc([N+](=O)[O-])ccc2N1 | High
8. Oc1ccc2c3c1O[C@H]1[C@@H](O)CC[C@@]4(O)[C@@H](C2)N(CC2CCC2)CC[C@]314 | High
9. CNC1=Nc2ccc(Cl)cc2C(c2ccccc2)=[N+]([O-])C1 [Chlordiazepoxide] | Low
10. Cc1nnc2n1-c1ccc(Cl)cc1C(c1ccccc1)=NC2 | Medium
11. c1ccc(Cn2ccnc2)cc1 | High
12. CC(NC(C)(C)C)C(=O)c1cccc(Cl)c1 (stereo not given) | Low
13. Oc1cc2c(cc1O)[C@H]1c3ccccc3CN[C@@H]1CC2 (racemic) [Dihydrexidine] | High
14. O[C@@H]1CCCC[C@H]1N1CCC(c2ccccc2)CC1 (racemic) | Low
